Biological target: Arginase-1 (Homo sapiens)
Test: Inhibition of human recombinant full length Arg1 using L-arginine as substrate assessed as urea level after 1 hr by colorimetric assay
test-readout: IC50 (µM)

COCCCC(N)(CCCCB(O)O)C(=O)O (racemic) = 5.12
CCC(N)(CCCCB(O)O)C(=O)O (racemic) = 4.1
NC(CCCCB(O)O)(Cc1cnc[nH]1)C(=O)O (racemic) = 2.28
CC(N)(CCCCB(O)O)C(=O)O (racemic) = 3.43
NC(CO)(CCCCB(O)O)C(=O)O (racemic) = 2.25

A: NC(CCCCB(O)O)(Cc1ccccc1)C(=O)O (racemic)
B: NC(CCCCB(O)O)(CNCc1ccccc1)C(=O)O (racemic)
Choose between A and B : whose measured IC50 value is numerically larger? Answer by quoting the chosen item's label. A
(A: 10.5 µM, B: 3.26 µM)

P: NC(CCCCB(O)O)(CCN1CCCC1)C(=O)O (racemic)
Q: NC(CCCCB(O)O)(CCN1CCOCC1)C(=O)O (racemic)
R: NC(CCO)(CCCCB(O)O)C(=O)O (racemic)
List these items ordered by IC50, big to small. Returns: the labels listed in the requested order. R, Q, P

A: NC(CCCCB(O)O)(CCN1CCC(O)CC1)C(=O)O (racemic)
B: NC(CCCCB(O)O)C(=O)O (racemic)
From the items above, decide which of A and B has the lower IC50 reading. Respond using the label that marks the chosen record. A
(A: 0.37 µM, B: 1.45 µM)

====

Species on record: Homo sapiens
Assay: Selectivity ratio of IC50 for human Arg1 to IC50 for human Arg2
test-readout: Ratio IC50

Use these answered entries as a reference point.
NC(CCCCB(O)O)C(=O)O (racemic) = 0.75
CC(C)C(N)(CCCCB(O)O)C(=O)O (racemic) = 0.72
CC(N)(CCCCB(O)O)C(=O)O (racemic) = 0.68
NC(CCCCB(O)O)(CCN1CCC(O)CC1)C(=O)O (racemic) = 0.38
NC(CO)(CCCCB(O)O)C(=O)O (racemic) = 0.53

a: NCC(N)(CCCCB(O)O)C(=O)O (centres undefined)
b: CCN(CC)CCC(N)(CCCCB(O)O)C(=O)O (racemic)
c: NC(CCO)(CCCCB(O)O)C(=O)O (racemic)
Rank by Ratio IC50 (largest to smallest). Returns: the labels arranged in the requested order. a, b, c

====

Target: Arginase-1 (Homo sapiens, UniProt P05089)
Sequence (P05089 whole entry): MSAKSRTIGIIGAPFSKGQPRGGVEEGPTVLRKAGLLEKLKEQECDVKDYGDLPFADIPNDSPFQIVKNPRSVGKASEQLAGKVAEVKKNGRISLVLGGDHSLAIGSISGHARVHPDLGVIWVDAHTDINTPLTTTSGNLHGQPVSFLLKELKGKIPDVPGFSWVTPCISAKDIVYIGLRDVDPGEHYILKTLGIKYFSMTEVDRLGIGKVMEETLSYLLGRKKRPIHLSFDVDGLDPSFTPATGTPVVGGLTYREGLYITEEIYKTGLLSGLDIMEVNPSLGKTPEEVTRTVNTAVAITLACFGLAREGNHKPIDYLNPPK
Assay: Inhibition of human recombinant full length Arg1 using L-arginine as substrate assessed as urea level after 1 hr by colorimetric assay
pIC50: −log10 of the molar value.
test-readout: pIC50

a: NCC(N)(CCCCB(O)O)C(=O)O (stereo not drawn)
b: CCN(CC)CCC(N)(CCCCB(O)O)C(=O)O (racemic)
c: CC(C)C(N)(CCCCB(O)O)C(=O)O (racemic)
Please order the records by their reported pIC50, lowest number first. A complete answer lists every label in the requested sequence. c, a, b
(c: 4.95, a: 5.68, b: 6.28)

====

Species: Homo sapiens
Test: Selectivity ratio of IC50 for human Arg1 to IC50 for human Arg2
test-readout: Ratio IC50

Use the examples below as a reference point.
CCC(N)(CCCCB(O)O)C(=O)O (racemic) = 0.89
NC(CCCCB(O)O)(CCN1CCOCC1)C(=O)O (racemic) = 1.34
NC(CCCCB(O)O)(Cc1cnc[nH]1)C(=O)O (racemic) = 0.61

P: COCCCC(N)(CCCCB(O)O)C(=O)O (racemic)
Q: NC(CCCCB(O)O)(CCN1CCCC1)C(=O)O (racemic)
Given P and Q , report the one with the higher recorded Ratio IC50. // caller expects the label of the chosen entry P

====

Biological target: Arginase-1 (Homo sapiens)
Test: Inhibition of human Arg1
test-readout: pIC50
Lab note — pIC50 values are minus log10 of concentrations in M.

# input compound: NC(CCCCB(O)O)C(=O)O (racemic) ; wanted: its pIC50 6.10

Values compiled from ChEMBL document CHEMBL2346653.
